// provenance: ChEMBL document CHEMBL5661980

# assay-comment: Cmax in CD-1 mouse measured at 250 mg/kg, po for 1 to 24 hrs by HPLC-MS/MS analysis
# Format: ADME, organism-based
# test-settings: in vivo, time 1-24 hrs
measurement-name: Cmax (µM)
# value in µM; strip the unit string

Please supply the value of reported Cmax for the item "C[C@]1(O)C[C@@H](c2nc(-c3ccc4ccc(-c5ccccc5)nc4c3)c3c(N)nccn32)C1"
42

###

# assay-comment: in vitro
# test-settings: mouse, liver microsomes
# Description: Microsomal stability in mouse liver microsomes assessed as extraction ratio in presence of NADPH for 0 to 40 mins by LC-MS/MS analysis
measurement-name: hepatic extraction ratio
// return a plain number; no unit text

Determine its reported hepatic extraction ratio: "CN1CCN([C@H]2C[C@@H](c3nc(-c4ccc5ccc(-c6ccccc6)nc5c4)c4c(N)nccn43)C2)CC1"
0.53
